# Test system: PPARa:RXRa (NR concentration 270 nM, RXRa partner concentration 90 nM)
# experimentDescription: PBM binding z-score (relative to random genomic background probes); higher = stronger binding; sequences stand for … in GC…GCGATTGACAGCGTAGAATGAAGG
readoutName: PBM binding z-score

• ATATGTAGGTTAGCTGGGGTCAGTCAGACTAGGC = 4.38
• ACTCGGCGGACAAAGGTCAGAGCTACGCCAGTGA = 4.34
• TAGCCTAGGTCATGCCGGCCAGTATAGTGTCGGC = 3.07
• TAGCCTAGGTCATGCGTGCCAGTATAGTGTCGGC = 3.69
• CCGACTGGGGCAAAGGCTACCATACTCAGTACGA = 2.78
• TCGAGTAGCTTAGGGGCATTCAGAATGGCGTCGA = 0.246

* * *

# Tested on: PPARg:RXRa DBDmut IVT, anti-RXR (DBD mutation: RXRa K156A/R161A, NR concentration 270 nM, RXRa partner concentration 90 nM)
# experimentDescription: PBM binding z-score (relative to random genomic background probes); higher = stronger binding; sequences stand for … in GC…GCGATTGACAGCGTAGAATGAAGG
readoutName: PBM binding z-score

- CAAACTCGGTCACGAAAGGTCAAAGTCGAATGAC: 5.23
- CAAACTAGGTCACGGTCAAAGTCGGTTTGTGCCA: 8.53
- CGTCCAAAGTCAGAGAGGTCAGTGAATGCCGAGT: 0.254
- TCTATTAGTTGATTAGGGCTACCGAAACAGCGGA: 1.71
- GTACCAAGGTGAGTAGGTCGTTGATGAGTAGGCG: 1.77
- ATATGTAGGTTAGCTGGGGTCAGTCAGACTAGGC: 6.39
- CCTAGCAGGCCAATCTGGCTCACTCAAGGCTTGA: 1.35
- TCATATAGATAAAGGTGAAAGTCGAACGATATGA: 2.13
- TCTCGGAGAACACGAAGGTCAGAGCTTTCCAGAG: 1.08
- TCTAGCAGGCCAGAGGGTCAATCAAGAGGTACGG: 0.793
- ACAGACACGTGATGAAGGTAACTCAGGCTATCAT: -0.318
- ATACCAAGGTGATCGTGCGGTCGTTGATACTAAC: 0.367
- TCTATTAGTTGAAGGGCAACTGACGAGTCCGTTT: 2.25
- ACTTACGGGTCAACGAGGTTATCGCACGCGTATA: 4.15
- CCGAGTAGGTTAGGGGGCATTCAGGCAACGGTGA: 2.55
- TTACCAAGGTGAAGGTCGTTAATCCCTCTGTAGA: 1.67
- TAGCCTAGGTCATTGGGCCAGTAAAGTACGCATC: 2.98
- CCAGACAGGTGAGAAGGCAACTCAGCCTCGATTA: 0.42
- TGTCAAAGTGCAAAGGTAACGTAAGTATCCACAC: 0.00516
- CCTACTGGGCCAGTCAGAGGTCATTGATCATATG: 3.73
- GCTGCTAGGTCACGTTGGTCAGCTAACGGGTACG: 5.22
- CCGACTGGCGCATAAGGTTACCATAAGCCAGCCC: -0.22
- ACTAGTTGGTCAGCTGAGGTTACACACAATTCGG: 1.4
- GCTGCTAGGTCAGGTTGGTGAGCTAACGGGTACG: 2.52
- CCTGCTAGCTCAATGGTCAGCTAAAGCAGCTCGC: -0.172
- ATCACTAGGTAAAGTTCAGTGAAAGATCGATAGA: 3.89

Ref: the supplement of paper PMC6555819
